Where do the numbers come from? From patent US12662451B2.

Answer each item with its documented CC50.
Tested on: SW48 human colorectal cancer cells
Assay: Calculated free drug potency in SW48 cell assay, corrected with media free fraction (Example C)
Assay type: cell-based
Conditions: Homo sapiens, SW48, SW48 pCC50 corrected with measured free fraction in cell assay media
One number for each entry, in nM.

Example entries begin here.
molecule	CC50 [nM]
COCCO[C@@H]1C[C@H](C(=O)Nc2ccc(C(F)(F)F)cc2F)[C@@H](C(=O)O)[C@H](c2ccc(N(C)S(=O)(=O)c3ccc4c(c3)nc(C)n4C)cc2)C1 (stereo in doubt) [Example 315]	3800
Cc1nc2cc(S(=O)(=O)N(C)c3ccc([C@H]4CCC[C@@H](C(=O)Nc5ccc(C(F)(F)F)cc5F)[C@@H]4C(=O)O)cc3)cnc2n1C [Example 124]	49
CCO[C@@H]1C[C@H](c2ccc(N(C)S(=O)(=O)c3cnc4c(c3)nc(C)n4C)cc2)[C@@H](C(=O)O)[C@H](C(=O)Nc2ccc(C(F)(F)F)cc2F)C1 [Example 141]	70.8
Cc1nc2cc(S(=O)(=O)N(C)c3ccc([C@H]4C[C@@H](N5CC[C@H](F)C5)C[C@@H](C(=O)Nc5ccc(C(F)(F)F)cc5F)[C@@H]4C(=O)O)cc3)ccc2n1C (stereo in doubt) [Example 377]	8.91
CN(c1ccc([C@H]2CCC[C@@H](C(=O)Nc3ccc(C(F)(F)F)cc3F)[C@@H]2C(=O)O)cc1)S(=O)(=O)c1cc(I)c2occc2c1 [Example 94]	5.62
CN(c1ccc([C@H]2CCC[C@@H](COc3ccc(C(F)(F)F)cc3)[C@@H]2C(=O)O)cc1)S(=O)(=O)c1ccc2c(c1)nc(CCN)n2C [Example 273]	64.6

Provide reported CC50 for each item, in the same order as listed.
1. COCCO[C@@H]1C[C@H](c2ccc(N(C)S(=O)(=O)c3ccc4c(c3)nc(C)n4C)cc2)[C@@H](C(=O)O)[C@H](C(=O)Nc2ccc(C(F)(F)F)cc2F)C1 (stereo in doubt) [Example 316]
2. Cc1nc2cc(S(=O)(=O)N(C)c3ccc([C@H]4C[C@@H](OCC5CCC5)C[C@@H](C(=O)Nc5ccc(C(F)(F)F)cc5F)[C@@H]4C(=O)O)cc3)ccc2n1C (stereo in doubt) [Example 154]
3. Cc1cc([C@H]2CCC[C@@H](C(=O)Nc3ccc(C(F)(F)F)cc3F)[C@@H]2C(=O)O)ccc1N(C)S(=O)(=O)c1ccc2c(c1)nc(C)n2C [Example 295]
4. Cc1nc2cc(S(=O)(=O)N(C)c3ccc([C@H]4C[C@H](N5CCCC(F)(F)C5)C[C@@H](C(=O)Nc5ccc(C(F)(F)F)cc5F)[C@@H]4C(=O)O)cc3)ccc2n1C (stereo in doubt) [Example 352]

Ans.
1. 30.2
2. 5.01
3. 186
4. 112
